Test system human D4R (Homo sapiens, UniProt P21917), pIC50 listed for each of the compounds.
Quick note: pIC50 means taking -log10 of the concentration in moles per liter.

Entry Cc1cccc(-n2cc(CN3CCN(c4ccccn4)CC3)nn2)c1 [Compound 15] ; assay system human D4R (Homo sapiens, UniProt P21917); pIC50 recorded at 7.24

Entry Cc1cccc(-n2cc(CN3CCC(c4ccccc4)CC3)nn2)c1 [Compound 14] ; assay system human D4R (Homo sapiens, UniProt P21917); pIC50 recorded at 7.07

Entry Cc1cccc(-n2cc(CN3CCN(c4ccc(Cl)cn4)CC3)nn2)c1 [Compound 17] ; assay system human D4R (Homo sapiens, UniProt P21917); pIC50 recorded at 6.87

Entry Cc1cccc(-n2cc(CN3CCN(c4ncccn4)CC3)nn2)c1 [Compound 16] ; assay system human D4R (Homo sapiens, UniProt P21917); pIC50 recorded at 7.17

Entry Cc1cccc(NC(=O)CN2CCC(c3ccccc3)CC2)c1 [Compound 5] ; assay system human D4R (Homo sapiens, UniProt P21917); pIC50 recorded at 7.37

Entry CCc1cccc(NC(=O)CN2CCN(c3ccccn3)CC2)c1 [Compound 3] ; assay system human D4R (Homo sapiens, UniProt P21917); pIC50 recorded at 6.57

Entry Cc1cccc(NC(=O)CN2CCN(c3ccc(Cl)cn3)CC2)c1 [Compound 7] ; assay system human D4R (Homo sapiens, UniProt P21917); pIC50 recorded at 5.54

Entry Cc1cccc(-n2cc(CN3CCN(c4cccc5ccccc45)CC3)nn2)c1 [Compound 18] ; assay system human D4R (Homo sapiens, UniProt P21917); pIC50 recorded at 6.04
